# Test system: benzodiazepine receptors
# assay_method_text: displacement of 3H-flunitrazepam from benzodiazepine receptors in live brain, in vivo
# experimental_setup: reduction of specific flunitrazepam binding in live brain to 50% of control; normally intraperitoneal; 3H-flunitrazepam i.v. after 15 minutes, forebrain removed after another 20 minutes
observable: ED50 (mg/kg) in vivo
Report the figure in mg/kg without appending any unit label.

Record CCc1noc(-c2ncc3[nH]c4cccc(Oc5ccccc5Cl)c4c3c2COC)n1 [5-(2-Cl-Phenoxy), CH2 OCH3, drawing 10] , field ED50 (mg/kg) in vivo: 11

Record CCc1noc(-c2ncc3[nH]c4cccc(Oc5ccccc5)c4c3c2COC)n1 [5-Phenoxy, CH2 OCH3, drawing 12] , field ED50 (mg/kg) in vivo: 0.3

Record CCc1noc(-c2ncc3[nH]c4ccc(Oc5ccccc5)cc4c3c2C)n1 [6-Phenoxy, CH3, drawing 14] , field ED50 (mg/kg) in vivo: 2.6

Record CCc1noc(-c2ncc3[nH]c4ccc(Oc5ccc(C(C)=O)cc5)cc4c3c2COC)n1 [6-(4-acetylphenoxy), CH2 OCH3, drawing 11] , field ED50 (mg/kg) in vivo: 7.7

Record CCOC(=O)c1ncc2[nH]c3cccc(Oc4ccccc4)c3c2c1COC , field ED50 (mg/kg) in vivo: 0.4

Record CCOC(=O)c1ncc2[nH]c3cccc(Oc4ccccc4)c3c2c1C [5-Phenoxy, CH3, COOC2 H5, reference compound] , field ED50 (mg/kg) in vivo: 2.8

Record COCc1c(C(=O)OC(C)C)ncc2[nH]c3ccc(Oc4ccccc4C#N)cc3c12 , field ED50 (mg/kg) in vivo: 3.8

Record CCOC(=O)c1ncc2[nH]c3cccc(Oc4ccc(Cl)cc4Cl)c3c2c1COC , field ED50 (mg/kg) in vivo: 3.2

Record CCc1noc(-c2ncc3[nH]c4cccc(Oc5ccccc5)c4c3c2C)n1 [5-Phenoxy, CH3, drawing 13] , field ED50 (mg/kg) in vivo: 3.9

Record COCc1c(C(=O)OC(C)C)ncc2[nH]c3cccc(Oc4ccccc4Cl)c3c12 , field ED50 (mg/kg) in vivo: 19

Record COCc1c(C(=O)OC(C)C)ncc2[nH]c3ccc(Oc4ccccc4[N+](=O)[O-])cc3c12 , field ED50 (mg/kg) in vivo: 1.8

Record COCc1c(C(=O)OC(C)C)ncc2[nH]c3ccc(Oc4cccc(Cl)c4C#N)cc3c12 , field ED50 (mg/kg) in vivo: 3.0

* * *

# assay_system: benzodiazepine receptors
# assay_method_text: displacement of 3H-flunitrazepam from benzodiazepine receptors in vitro (rat forebrain membranes)
# experimental_setup: 50% displacement of specific 3H-flunitrazepam binding (1.0 nM, 0° C.), brain membranes of rats, pH 7.1
observable: IC50 (ng/ml) in vitro (ng/mL)
Report the figure in ng/mL without appending any unit label.

Record CCOC(=O)c1ncc2[nH]c3cccc(Oc4ccc(Cl)cc4Cl)c3c2c1COC , field IC50 (ng/ml) in vitro: 2.9

Record COCc1c(C(=O)OC(C)C)ncc2[nH]c3ccc(Oc4ccccc4C#N)cc3c12 , field IC50 (ng/ml) in vitro: 0.29

Record CCc1noc(-c2ncc3[nH]c4cccc(Oc5ccccc5)c4c3c2COC)n1 [5-Phenoxy, CH2 OCH3, drawing 12] , field IC50 (ng/ml) in vitro: 0.6

Record COCc1c(C(=O)OC(C)C)ncc2[nH]c3ccc(Oc4ccccc4[N+](=O)[O-])cc3c12 , field IC50 (ng/ml) in vitro: 0.33

Record CCc1noc(-c2ncc3[nH]c4cccc(Oc5ccccc5)c4c3c2C)n1 [5-Phenoxy, CH3, drawing 13] , field IC50 (ng/ml) in vitro: 4.3
